# measured.target: CCR2b (Homo sapiens)
# Construct: host or cells: AequoScreen CCR2b cells
# Sequence (P41597 1-360 isoform P41597-2): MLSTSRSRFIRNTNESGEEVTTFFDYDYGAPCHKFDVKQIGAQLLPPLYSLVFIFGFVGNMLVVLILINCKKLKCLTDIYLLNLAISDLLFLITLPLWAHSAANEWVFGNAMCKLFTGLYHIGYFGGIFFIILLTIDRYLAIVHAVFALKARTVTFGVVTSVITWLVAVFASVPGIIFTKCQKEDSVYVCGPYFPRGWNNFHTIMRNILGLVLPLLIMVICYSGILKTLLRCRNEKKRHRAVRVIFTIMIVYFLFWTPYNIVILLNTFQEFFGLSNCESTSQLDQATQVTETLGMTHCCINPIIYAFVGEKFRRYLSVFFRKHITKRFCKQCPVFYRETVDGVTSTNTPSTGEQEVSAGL
# assay.procedure: AequoScreen assay, Ca++ flux (antagonist mode against reference agonist MCP-1)
# Assay type: cell-based
# setup.conditions: AequoScreen CCR2b (FAST-060A) cells; inhibition of reference agonist MCP-1 at its EC80
Examples of compounds with documented IC50 follow.

# annotated cases, reported IC50 shown
INSERT INTO assay_data (compound, measured_target, result) VALUES
  ('O=C1COc2ccc(CN3CCC(CC4CC4)(C(=O)NCc4cc(C(F)(F)F)cc(C(F)(F)F)c4)C3)cc2N1 (stereo not drawn)', 'CCR2b (Homo sapiens)', '0.2 to 1 µM'),
  ('CN1C(=O)COc2ccc(CN3CCC(CC4CC4)(C(=O)NCc4cc(C(F)(F)F)cc(C(F)(F)F)c4)CC3)cc21', 'CCR2b (Homo sapiens)', '0.2 to 1 µM'),
  ('O=C(NCc1cc(C(F)(F)F)cc(C(F)(F)F)c1)C1(CC2CC2)CCN(Cc2ccc3cc[nH]c(=O)c3c2)CC1', 'CCR2b (Homo sapiens)', '> 1 µM'),
  ('CC(C)CC1(C(=O)NCc2cc(C(F)(F)F)cc(C(F)(F)F)c2)CCN(Cc2ccc3c(c2)OCCN3C)CC1', 'CCR2b (Homo sapiens)', '> 1 µM'),
  ('O=C(NCc1cc(C(F)(F)F)cc(C(F)(F)F)c1)C1(CC2CC2)CCN(Cc2ccc3ccc(=O)[nH]c3c2)CC1', 'CCR2b (Homo sapiens)', '> 1 µM'),
  ('O=C(NCc1cc(C(F)(F)F)cc(C(F)(F)F)c1)C1(CC2CC2)CCN(Cc2cccc3c(=O)[nH]ccc23)CC1', 'CCR2b (Homo sapiens)', '0.2 to 1 µM'),
  ('Cn1c(=O)oc2ccc(CN3CCC(CC4CC4)(C(=O)NCc4cc(C(F)(F)F)cc(C(F)(F)F)c4)CC3)cc21', 'CCR2b (Homo sapiens)', '0.2 to 1 µM'),
  ('O=C1COc2ccc(C(O)CN3CCC(CC4CC4)(C(=O)NCc4cc(C(F)(F)F)cc(C(F)(F)F)c4)CC3)cc2N1 (stereo not drawn)', 'CCR2b (Homo sapiens)', '> 1 µM');

Okay, now this compound:
Ask: Recall the recorded IC50 for "CC(C)CC1(C(=O)NCc2cc(C(F)(F)F)cc(C(F)(F)F)c2)CCN(Cc2ccc3c(c2)nnn3C)CC1" with CCR2b (Homo sapiens) and state it.
Result: > 1 µM
